assay: Total plasma clearance in C57 mouse at 5 mg/kg, iv; type: ADME, organism-based; design: dose 5 mg/kg, route intravenous
Consider the cut-off 1 L/h/kg. If the recorded clearance is strictly smaller, the label is Criterion met; if not, the label is Criterion not met.

These recorded examples may help you get a feel for the data.
INSERT INTO measurements (compound, discrete_label) VALUES
  ('CC(C)(C)C[C@@H]1N[C@@H](C(=O)Nc2ccc(C(=O)O)cc2F)[C@H](c2cccc(Cl)c2F)[C@@]1(C#N)c1ccc(Cl)cc1F', 'Criterion met'),
  ('CC(C)(C)C[C@@H]1N[C@@H](C(=O)Nc2ccc(C(=O)O)c(F)c2)[C@H](c2cccc(Cl)c2F)[C@@]1(C#N)c1ccc(Cl)cc1F', 'Criterion not met'),
  ('CC(C)(C)C[C@@H]1N[C@@H](C(=O)Nc2ccc(C(=O)O)cn2)[C@H](c2cccc(Cl)c2F)[C@@]1(C#N)c1ccc(Cl)cc1F', 'Criterion not met'),
  ('COc1cc(C(=O)O)ccc1NC(=O)[C@@H]1N[C@@H](CC(C)(C)C)[C@](C#N)(c2ccc(Cl)cc2F)[C@H]1c1cccc(Cl)c1F [IDASANUTLIN]', 'Criterion met'),
  ('CC(C)(C)C[C@@H]1N[C@@H](C(=O)Nc2ccc3cc(C(=O)O)ccc3c2)[C@H](c2cccc(Cl)c2F)[C@@]1(C#N)c1ccc(Cl)cc1F', 'Criterion not met'),
  ('COc1cc(NC(=O)[C@@H]2N[C@@H](CC(C)(C)C)[C@](C#N)(c3ccc(Cl)cc3F)[C@H]2c2cccc(Cl)c2F)ccc1C(=O)O', 'Criterion not met');

Q) Report whether reported clearance is lower than 1 L/h/kg (strictly) for CC(C)(C)C[C@@H]1N[C@@H](C(=O)NCC[C@H](O)CO)[C@H](c2cccc(Cl)c2)[C@@]1(C#N)c1ccc(Cl)cc1
A) Criterion not met

Q) Report whether reported clearance is lower than 1 L/h/kg (strictly) for CC(C)(C)C[C@@H]1N[C@@H](C(=O)NCC[C@H](O)CO)[C@H](c2cccc(Cl)c2F)[C@@]1(C#N)c1ccc(Cl)cc1F
A) Criterion not met

---

experiment: AUC in nude mouse xenografted with human SJSA1 cells at 12.5 mg/kg, po; format: ADME, organism-based, SJSA-1; set-up: dose 12.5 mg/kg, route oral; settings: in vivo
Test readout: AUC (ng·h/mL)
Respond with the bare value in ng·h/mL.

Q) // AUC lookup, key: COc1cc(C(=O)O)ccc1NC(=O)[C@@H]1N[C@@H](CC(C)(C)C)[C@](C#N)(c2ccc(Cl)cc2F)[C@H]1c1cccc(Cl)c1F
A) 23000

---

test: Cmax in C57 mouse at 20 mg/kg, po; type: ADME, organism-based; design: dose 20 mg/kg, route oral; details: in vivo
# Cmax listing for each entry below
Respond with the bare value in ng/mL.

INSERT INTO assay_data (smiles, endpoint_unit, value_reported) VALUES
  ('CC(C)(C)C[C@@H]1N[C@@H](C(=O)NCC[C@H](O)CO)[C@H](c2cccc(Cl)c2F)[C@@]1(C#N)c1ccc(Cl)cc1F', 'ng/mL', 300);

We next turn to a different compound, shown below.
Q) // Cmax lookup, key: CC(C)(C)C[C@@H]1N[C@@H](C(=O)NCC[C@H](O)CO)[C@H](c2cccc(Cl)c2)[C@@]1(C#N)c1ccc(Cl)cc1
A) 500

---

assay: Oral bioavailability in C57 mouse at 50 mg/kg; type: ADME, organism-based; details: in vivo
Test readout: bioavailability
Respond with the figure and its unit, in that order.

INSERT INTO measurements (smiles, value_reported) VALUES
  ('CC(C)(C)C[C@@H]1N[C@@H](C(=O)Nc2ccc(C(=O)O)cn2)[C@H](c2cccc(Cl)c2F)[C@@]1(C#N)c1ccc(Cl)cc1F', '53%'),
  ('COc1cc(NC(=O)[C@@H]2N[C@@H](CC(C)(C)C)[C@](C#N)(c3ccc(Cl)cc3F)[C@H]2c2cccc(Cl)c2F)ccc1C(=O)O', '56%');

We next turn to a different compound, shown below.
Q) // bioavailability lookup, key: CC(C)(C)C[C@@H]1N[C@@H](C(=O)Nc2ccc(C(=O)O)c(F)c2)[C@H](c2cccc(Cl)c2F)[C@@]1(C#N)c1ccc(Cl)cc1F
A) 49%

---

experiment: AUC in nude mouse xenografted with human SJSA1 cells at 25 mg/kg, po; format: ADME, organism-based, SJSA-1; design: dose 25 mg/kg, route oral; details: in vivo
Test readout: AUC

Q) // AUC lookup, key: COc1cc(C(=O)O)ccc1NC(=O)[C@@H]1N[C@@H](CC(C)(C)C)[C@](C#N)(c2ccc(Cl)cc2F)[C@H]1c1cccc(Cl)c1F [IDASANUTLIN]
A) 29000 ng·h/mL

---

experiment: Half life in nude mouse at 5 mg/kg, iv; format: ADME, organism-based; design: dose 5 mg/kg, route intravenous; settings: in vivo
Test readout: half-life (h)
Respond with the bare value in h.

INSERT INTO results (smiles, test_readout, value_reported) VALUES
  ('CC(C)(C)C[C@@H]1N[C@@H](C(=O)Nc2ccc(C(=O)O)cc2)[C@H](c2cccc(Cl)c2F)[C@@]1(C#N)c1ccc(Cl)cc1F', 'half-life', 4.34);

We next turn to a different molecule, shown below.
Q) // half-life lookup, key: CCOc1cc(C(C)(C)C)ccc1C1=N[C@@](C)(c2ccc(Cl)cc2)[C@@](C)(c2ccc(Cl)cc2)N1C(=O)N1CCN(CCCS(C)(=O)=O)CC1
A) 2.7

---

experiment: AUC in nude mouse xenografted with human SJSA1 cells at 100 mg/kg, po; assay type: ADME, organism-based, SJSA-1; set-up: dose 100 mg/kg, route oral; conditions: in vivo
Test readout: AUC (µg·h/mL)
Respond with the bare value in µg·h/mL.

Q) // AUC lookup, key: CCOc1cc(C(C)(C)C)ccc1C1=N[C@@](C)(c2ccc(Cl)cc2)[C@@](C)(c2ccc(Cl)cc2)N1C(=O)N1CCN(CCCS(C)(=O)=O)CC1
A) 380

---

# log10(half-life) listing for each entry below
test: Apparent terminal half-life in C57 mouse at 5 mg/kg, iv; type: ADME, organism-based; parameters: dose 5 mg/kg, route intravenous; conditions: in vivo, read-out: betat1/2(app) (converted)
Response schema: value (number) is log10 of half-life in units of h.

Past entries and their recorded results:
INSERT INTO measurements (compound, test_readout, value_reported) VALUES
  ('CC(C)(C)C[C@@H]1N[C@@H](C(=O)Nc2ccc3cc(C(=O)O)ccc3c2)[C@H](c2cccc(Cl)c2F)[C@@]1(C#N)c1ccc(Cl)cc1F', 'log10(half-life)', 0.15),
  ('CC(C)(C)C[C@@H]1N[C@@H](C(=O)Nc2ccc(C(=O)O)cc2F)[C@H](c2cccc(Cl)c2F)[C@@]1(C#N)c1ccc(Cl)cc1F', 'log10(half-life)', 0.49),
  ('COc1cc(NC(=O)[C@@H]2N[C@@H](CC(C)(C)C)[C@](C#N)(c3ccc(Cl)cc3F)[C@H]2c2cccc(Cl)c2F)ccc1C(=O)O', 'log10(half-life)', 0.68);

Q) // log10(half-life) lookup, key: COc1cc(C(=O)O)ccc1NC(=O)[C@@H]1N[C@@H](CC(C)(C)C)[C@](C#N)(c2ccc(Cl)cc2F)[C@H]1c1cccc(Cl)c1F [IDASANUTLIN]
A) 0.20

Q) // log10(half-life) lookup, key: CC(C)(C)C[C@@H]1N[C@@H](C(=O)Nc2ccc(C(=O)O)cn2)[C@H](c2cccc(Cl)c2F)[C@@]1(C#N)c1ccc(Cl)cc1F
A) 0.01

Q) // log10(half-life) lookup, key: CC(C)(C)C[C@@H]1N[C@@H](C(=O)NCC[C@H](O)CO)[C@H](c2cccc(Cl)c2F)[C@@]1(C#N)c1ccc(Cl)cc1F
A) -0.28

Q) // log10(half-life) lookup, key: CC(C)(C)C[C@@H]1N[C@@H](C(=O)NCC[C@H](O)CO)[C@H](c2cccc(Cl)c2)[C@@]1(C#N)c1ccc(Cl)cc1
A) -0.36

Q) // log10(half-life) lookup, key: CC(C)(C)C[C@@H]1N[C@@H](C(=O)Nc2ccc(C(=O)O)c(F)c2)[C@H](c2cccc(Cl)c2F)[C@@]1(C#N)c1ccc(Cl)cc1F
A) 0.64

---

assay: Cmax in C57 mouse at 50 mg/kg, po; type: ADME, organism-based; parameters: dose 50 mg/kg, route oral; settings: in vivo
Test readout: log10 Cmax (log10 of the value in ng/mL)
Response schema: value (number) is log10 of Cmax in units of ng/mL.

Q) // log10 Cmax lookup, key: COc1cc(C(=O)O)ccc1NC(=O)[C@@H]1N[C@@H](CC(C)(C)C)[C@](C#N)(c2ccc(Cl)cc2F)[C@H]1c1cccc(Cl)c1F [IDASANUTLIN]
A) 4.00

Q) // log10 Cmax lookup, key: CC(C)(C)C[C@@H]1N[C@@H](C(=O)Nc2ccc(C(=O)O)c(F)c2)[C@H](c2cccc(Cl)c2F)[C@@]1(C#N)c1ccc(Cl)cc1F
A) 3.58

Q) // log10 Cmax lookup, key: COc1cc(NC(=O)[C@@H]2N[C@@H](CC(C)(C)C)[C@](C#N)(c3ccc(Cl)cc3F)[C@H]2c2cccc(Cl)c2F)ccc1C(=O)O
A) 3.61
